species on record: Rattus norvegicus; assay: Anticarcinogenic activity in rat assessed as induction of tumors per day; format: functional
Reported pTD50 values follow for various compounds

{"compound-structure": "NNc1nc(-c2ccc([N+](=O)[O-])cc2)cs1", "pTD50": 0.498}
{"compound-structure": "CC(C)=NNc1nc(-c2ccc([N+](=O)[O-])o2)cs1", "pTD50": 1.356}
{"compound-structure": "CCCN(CCC)c1c([N+](=O)[O-])cc(C(F)(F)F)cc1[N+](=O)[O-]", "pTD50": 4.245}
{"compound-structure": "Cn1cnc([N+](=O)[O-])c1Sc1ncnc2[nH]cnc12", "pTD50": 1.561}
{"compound-structure": "O=[N+]([O-])c1ccccc1", "pTD50": 1.678}
{"compound-structure": "O=[N+]([O-])c1ccc2c3c(cccc13)CC2", "pTD50": 1.48}
